B1: CPEB3 Ribozyme (parent)
chain: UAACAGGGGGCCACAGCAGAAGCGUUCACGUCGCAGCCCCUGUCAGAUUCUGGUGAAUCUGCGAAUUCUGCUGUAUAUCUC

Variants of: B1
TEST_NAME: self-cleavage, relative activity (ratio to wild type); higher = more cleavage; in vitro, sequencing
ASSAY_METRIC: self-cleavage

> print(dat)
                              residue.codes  experimental.value
1  UAACAGGGGGCCACAGCAGAAGCGUUCACGUCGCAGCCCCUGCCAGAUUCUGGUGAAUCUGCCAAUUCUGCUGUAUAUCUC [U43C G63C]                 0.3
2  UAACAGGGGGCCACAGCAUAAGCGUUCACGUCGCAGCCCCUGUCAGAUUCUGGUGAAUCUACGAAUUCUGCUGUAUAUCUC [G19U G61A]                 0.3
3  UAACAGGGGGCCACGGCAGAAGCGUUCACGUCGCAGCCCCUGUCAGAUUCUGGUGAAUCUGCGAAUUCCGCUGUAUAUCUC [A15G U69C]                 0.3
